Would you mind telling me the reported Selectivity of each entry?
Organism: Cavia porcellus
Assay: Cardioselectivity determined (Antilog [pA2 (atria) - pA2 (trachea)] )
// response body must contain only the number

q: Would you mind telling me what Selectivity value was observed for COC(=O)c1ccccc1OCC(O)CNC(C)(C)CNC(=O)N1CCOCC1 (centres undefined) ?
a: 5

q: Then COC(=O)c1ccccc1OCC(O)CNCCNC(=O)Cc1ccccc1 (centres undefined) ?
a: 4

q: Then COC(=O)c1ccccc1OCC(O)CNCCNC(C)=O (centres undefined) ?
a: 2

q: Then CCOC(=O)NCC(C)(C)NCC(O)COc1ccccc1C(=O)OC (centres undefined) ?
a: 2.5

q: Then CCOC(=O)c1ccccc1OCC(O)CNCCNC(=O)C(C)C (centres undefined) ?
a: 6.3

q: Then COC(=O)c1ccccc1OCC(O)CNCCNC(=O)Nc1ccccc1 (centres undefined) ?
a: 25.1

q: Then COC(=O)c1ccccc1OCC(O)CNCCNc1ccc([N+](=O)[O-])cn1 (centres undefined) ?
a: 2.5

q: Then COC(=O)c1ccccc1OCC(O)CNC(C)C (centres undefined) ?
a: 2.5

q: Then COC(=O)c1ccccc1OCC(O)CNC(C)(C)CNC(N)=O (centres undefined) ?
a: 2.5

q: Then COC(=O)c1ccccc1OCC(O)CNCCNC(=O)C(C)C (centres undefined) ?
a: 4

q: Then CCOC(=O)c1ccccc1OCC(O)CNC(C)(C)CNC(N)=O (centres undefined) ?
a: 4

q: Then COC(=O)/C=C/c1ccccc1OCC(O)CNCCNC(=O)C(C)C (centres undefined) ?
a: 2

q: Then Cc1ccccc1OCC(O)CNCCNC(=O)C(C)C (centres undefined) ?
a: 4

q: Then Cc1ccccc1OCC(O)CNC(C)C (centres undefined) ?
a: 2.5
